System: Radical scavenging activity
Experiment: Antioxidant activity assessed as decrease in DPPH free radical level after 20 min by DPPH assay method
Type: functional
Design: concentration or dose not given beside the values
metric: inhibition (%)

O=C(CC(=O)c1cc(Cl)c(O[C@@H]2O[C@H](CO)[C@@H](O)[C@H](O)[C@H]2O)cc1O)c1cccs1 | 81.2
O=C(CC(=O)c1ccc(O[C@@H]2O[C@H](CO)[C@@H](O)[C@H](O)[C@H]2O)cc1O)c1ccccn1 | 79
O=C(CC(=O)c1cc(Cl)c(O[C@@H]2O[C@H](CO)[C@@H](O)[C@H](O)[C@H]2O)cc1O)c1cccnc1 | 79.5
